molecular target: human tumor necrosis factor-α (R & D Co., Catalog Number: 210-TA-050) (human, UniProt P01375 77-233); experiment: cell-based or functional assay
Sequence (P01375 77-233 limits assumed): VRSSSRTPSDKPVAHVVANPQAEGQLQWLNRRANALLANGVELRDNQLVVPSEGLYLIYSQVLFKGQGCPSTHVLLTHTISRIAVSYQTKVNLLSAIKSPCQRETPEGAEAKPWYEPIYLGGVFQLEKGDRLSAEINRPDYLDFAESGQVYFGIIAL
measure.name: EC50, L929 cytotoxicity experiment (nM)
Report as a plain number; the unit nM is understood.

# input binder: KS02 (antibody, human IgG1, kappa, V domains shown) VH: QVQLVESGGGLVKPGGSLRLSCAASGFTFSNAWMNWVRQAPGKGLEWVAEIRSKSINSATHYAESVKGRFTISRDNSKKTLYLEMNSLRVEDTAVYYCSRNYYGSTYDYWGQGTTLTVSS VL: EIVLTQSPDFQSVSPKETVTITCRASQTVHMSLHWYQQKPNQSPRLLIKYGSQSFSGVPSRFSGSGSGTDFTLTINSLEPEDAATYYCQQSHSWPFTFGSGTNVDIKR ; wanted: its EC50, L929 cytotoxicity experiment
0.109

# input binder: KS07 (antibody, human IgG1, kappa, V domains shown) VH: QVQLVESGGGLVKPGGSLRLSCAASGFTFSNAWMNWVRQAPGKGLEWVAEIRSKSINSATHYAESVKGRFTISRDNSKKTLYLEMNSLRVEDTAVYYCSRNYYGSTYDYWGQGTTLTVSS VL: EIVLTQSPDFQSVTPKEKVTITCRASQSIYSSLHWYQQKPDQSPKLLIKFASQSVSGVPSRFSGSGSGTDFTLTINSLEAEDAATYYCQQSHFWPFTFGSGTNVDIKR ; wanted: its EC50, L929 cytotoxicity experiment
0.1

# input binder: KS08 (antibody, human IgG1, kappa, V domains shown) VH: QVQLVESGGGLVKPGGSLRLSCAASGFTFSNAWMNWVRQAPGKGLEWVAEIRSKSINSATHYAESVKGRFTISRDNSKKTLYLEMNSLRVEDTAVYYCSRNYYGSTYDYWGQGTTLTVSS VL: EIVLTQSPDFQSVSPKETVTITCRASQTVHMSLHWYQQKPNQSPRLLIKYGSQSFSGVPSRFSGSGSGTDFTLTINSLEPEDAATYYCQQSHFWPFTFGSGTNVDIKR ; wanted: its EC50, L929 cytotoxicity experiment
0.113

# input binder: KS11 (antibody, human IgG1, kappa, V domains shown) VH: QVQLVESGGGLVKPGGSLRLSCAASGFTFSNAWMNWVRQAPGKGLEWVAEIRSKSINSATHYAESVKGRFTISRDNSKKTLYLEMNSLRVEDTAVYYCSRNYYGSTYDYWGQGTTLTVSS VL: EIVLTQSPDFQSVSPKETVTITCRASQTVHMSLHWYQQKPNQSPRLLIKYGSQSFSGVPSRFSGSGSGTDFTLTINSLEPEDAATYYCQQSHWWPFTFGSGTNVDIKR ; wanted: its EC50, L929 cytotoxicity experiment
0.059
